target: B-cell lymphoma 6 protein (Homo sapiens, UniProt P41182, C67R/C84N/C8Q); test: Inhibition of BCOR peptide binding to BCL6 BTB domain (5 to 129 residues) C8Q/C67R/C84N triple mutant (unknown origin) expressed in Escherichia coli BL21(DE3) cells preincubated for 30 mins followed by BCOR ULight peptide addition and measured after 240 mins by TR-FRET assay
ENDPOINT LABEL: pIC50
// field semantics: pIC50 = negative decimal log of concentration (mol/L)

Return reported pIC50; argument: CNC(=O)COc1cc2cc(Nc3nc(N4C[C@H](C)C[C@H](C)C4)ncc3Cl)cc(OC)c2n(C)c1=O
8.52
